- assayed-target: GABA-A receptor; anion channel (Rattus norvegicus) (UniProt O09028+P15431+P18506+P18508+P19969+P20236+P23574+P23576+P28471+P28473+P30191+P62813+P63079+P63138+Q91ZM7+Q9ES14)
- assay-name: Displacement of [3H]flunitrazepam from GABAA receptor in rat brain extract at 10 uM relative to control
- Assay type: tissue-based
Decide by Activity: equal to or exceeding 70% means 1.0, less means 0.0.

Please review the entries below; each comes with its answer.
- structure-smiles: "O=C1Nc2ccc(Cl)cc2C(c2ccccc2F)=NC12CC2"
  cat: 1.0
- structure-smiles: "O=C(O)c1ncn2c1C1(CCCC1)N=C(c1ccccc1F)c1cc(Br)ccc1-2"
  cat: 0.0
- structure-smiles: "O=C1Nc2ccc(Br)cc2C(c2ccccc2F)=NC12CCCC2"
  cat: 0.0
- structure-smiles: "CCOC(=O)c1ncn2c1C1(CCC1)N=C(c1ccccc1F)c1cc(Br)ccc1-2"
  cat: 1.0
- structure-smiles: "CCOC(=O)c1ncn2c1C(C)(C)N=C(c1ccccc1F)c1cc(Br)ccc1-2"
  cat: 1.0
- structure-smiles: "O=C(O)c1ncn2c1C1(CC1)N=C(c1ccccc1F)c1cc(Br)ccc1-2"
  cat: 1.0
- structure-smiles: "CC1(C)N=C(c2ccccc2F)c2cc(Br)ccc2-n2cnc(C(=O)O)c21"
  cat: 1.0
- structure-smiles: "O=C(O)c1ncn2c1C1(CC1)N=C(c1ccccc1F)c1cc(Cl)ccc1-2"
  cat: 0.0

Moving on to the next compound.
Request: Record `CCOC(=O)c1ncn2c1C1(CCCC1)N=C(c1ccccc1F)c1cc(Br)ccc1-2` ; criterion: Activity no lower than 70%. Met?
Result: 0.0

meta.source: ChEMBL document CHEMBL5331136
